assayContext: in NMP, 313.15 K
measurementName: solubility (mole fraction)

> print(dat)
                                 testsmiles             measurementname  recordedresult
1  Nc1ncnc2c1ncn2[C@@H]1O[C@H](CO)[C@@H](O)[C@H]1O  solubility (mole fraction)          0.0522

====

assayContext: in NMP, 318.15 K
measurementName: solubility (mole fraction)

> print(dat)
                                 testsmiles  recordedresult
1  Nc1ncnc2c1ncn2[C@@H]1O[C@H](CO)[C@@H](O)[C@H]1O          0.0554

====

assayContext: in DMF, 318.15 K
measurementName: solubility (mole fraction)

> print(dat)
                                 testsmiles             measurementname  recordedresult
1  Nc1ncnc2c1ncn2[C@@H]1O[C@H](CO)[C@@H](O)[C@H]1O  solubility (mole fraction)           0.012
